Target: MBD2MBD (human, UniProt Q9UBB5 150-214)
Sequence (Q9UBB5 150-214): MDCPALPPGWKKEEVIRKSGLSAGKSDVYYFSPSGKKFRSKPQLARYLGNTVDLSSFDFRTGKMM
Assay: SPR steady state; 50 mM NaCl, 3 mM Mg2+; SPR: 10 mM HEPES pH 7.4, 50 mM NaCl, 3 mM MgCl2, 0.1 mM EDTA, 1 mM DTT, 0.05% polysorbate 20; FP: 10 mM HEPES pH 7.5, 50 or 150 mM NaCl, 3 mM MgCl2, 0.1 mM EDTA, 1 mM DTT, 0.02% azide; temperature not stated
Conditions: protein: recombinant; tags: thioredoxin-His fusion (modified pET32a; tag retained); label: 3' biotin on forward strand; blunt
metric: pKd
In plain terms, pKd is the concentration in mol/L turned into minus its base-10 logarithm.

# lookup: pKd of 17 bp central mCpG, SPR (dsDNA, 5-methyl-C at position 9 of strand 1 (central CpG); complement mC at position 8 implied, not given) DNA 1: GAGGCGCTCGGCGGCAG DNA 2: CTGCCGCCGAGCGCCTC 6.48
